From: patent US20230071371A1

Target: human NPFF2R (human, UniProt Q9Y5X5 1-522)
Sequence (Q9Y5X5 whole entry): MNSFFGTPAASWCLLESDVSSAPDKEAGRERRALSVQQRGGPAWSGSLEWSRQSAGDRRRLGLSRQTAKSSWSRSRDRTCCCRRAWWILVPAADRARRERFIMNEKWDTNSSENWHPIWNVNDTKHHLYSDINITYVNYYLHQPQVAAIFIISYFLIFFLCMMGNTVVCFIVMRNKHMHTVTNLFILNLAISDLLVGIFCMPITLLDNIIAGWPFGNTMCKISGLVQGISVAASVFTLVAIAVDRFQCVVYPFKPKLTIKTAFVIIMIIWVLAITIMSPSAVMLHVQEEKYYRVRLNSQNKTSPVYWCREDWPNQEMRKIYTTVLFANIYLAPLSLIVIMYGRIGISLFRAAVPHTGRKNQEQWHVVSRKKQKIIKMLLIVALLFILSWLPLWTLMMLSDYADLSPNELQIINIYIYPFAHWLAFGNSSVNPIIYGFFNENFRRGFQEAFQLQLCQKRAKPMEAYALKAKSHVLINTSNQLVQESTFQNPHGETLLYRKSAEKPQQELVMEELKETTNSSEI
Assay: cell-based or functional assay
Bridges are numbered along the chain shown (N, C = ends). Where no end group is shown, it is not given here. [ ]: non-standard residue; d: D form. hArg = N=C(N)NCCCC[C@H](N)C(=O)O; Nle = CCCC[C@H](N)C(=O)O; L12 = not defined here; L3 = not defined here; L4 = not defined here; L7 = not defined here; L9 = not defined here
Task for the reader: assign each of the following binders its reported NPFF2R EC50 0% FBS.
Lab book: enter the figure in nM, no units written.

Answer with reported NPFF2R EC50 0% FBS of SRAHQCS[Nle]ETRTCDINPAWYTG[hArg]GIRPVGRF-NH2 (linker 6-13 via L9; reading uncertain) [Conjugate 268]
9000

Answer with reported NPFF2R EC50 0% FBS of SRAHQCS[Nle]ETRTCDINPAWYTG[hArg]GIRPVGRF-NH2 (linker 6-13 via L12; reading uncertain) [Conjugate 269]
1600

Answer with reported NPFF2R EC50 0% FBS of SRAHQCS[Nle]ETRTCDINPAWYTG[hArg]GIRPVGRF-NH2 (linker 6-13 via L4; reading uncertain) [Conjugate 259]
470

Answer with reported NPFF2R EC50 0% FBS of SRAHQCS[Nle]ETRTCDINPAWYTG[hArg]GIRPVGRF-NH2 (linker 6-13 via L3; reading uncertain) [Conjugate 255]
150

Answer with reported NPFF2R EC50 0% FBS of SRAHQCS[Nle]ETRTCDINPAWYTG[hArg]GIRPVGRF-NH2 (linker 6-13 via L7; reading uncertain) [Conjugate 271]
130
